Biological target: c-Met kinase (recombinant c-Met) (Homo sapiens, UniProt P08581)
Construct: 0.27 nM recombinant c-Met
Sequence (P08581 25-1390): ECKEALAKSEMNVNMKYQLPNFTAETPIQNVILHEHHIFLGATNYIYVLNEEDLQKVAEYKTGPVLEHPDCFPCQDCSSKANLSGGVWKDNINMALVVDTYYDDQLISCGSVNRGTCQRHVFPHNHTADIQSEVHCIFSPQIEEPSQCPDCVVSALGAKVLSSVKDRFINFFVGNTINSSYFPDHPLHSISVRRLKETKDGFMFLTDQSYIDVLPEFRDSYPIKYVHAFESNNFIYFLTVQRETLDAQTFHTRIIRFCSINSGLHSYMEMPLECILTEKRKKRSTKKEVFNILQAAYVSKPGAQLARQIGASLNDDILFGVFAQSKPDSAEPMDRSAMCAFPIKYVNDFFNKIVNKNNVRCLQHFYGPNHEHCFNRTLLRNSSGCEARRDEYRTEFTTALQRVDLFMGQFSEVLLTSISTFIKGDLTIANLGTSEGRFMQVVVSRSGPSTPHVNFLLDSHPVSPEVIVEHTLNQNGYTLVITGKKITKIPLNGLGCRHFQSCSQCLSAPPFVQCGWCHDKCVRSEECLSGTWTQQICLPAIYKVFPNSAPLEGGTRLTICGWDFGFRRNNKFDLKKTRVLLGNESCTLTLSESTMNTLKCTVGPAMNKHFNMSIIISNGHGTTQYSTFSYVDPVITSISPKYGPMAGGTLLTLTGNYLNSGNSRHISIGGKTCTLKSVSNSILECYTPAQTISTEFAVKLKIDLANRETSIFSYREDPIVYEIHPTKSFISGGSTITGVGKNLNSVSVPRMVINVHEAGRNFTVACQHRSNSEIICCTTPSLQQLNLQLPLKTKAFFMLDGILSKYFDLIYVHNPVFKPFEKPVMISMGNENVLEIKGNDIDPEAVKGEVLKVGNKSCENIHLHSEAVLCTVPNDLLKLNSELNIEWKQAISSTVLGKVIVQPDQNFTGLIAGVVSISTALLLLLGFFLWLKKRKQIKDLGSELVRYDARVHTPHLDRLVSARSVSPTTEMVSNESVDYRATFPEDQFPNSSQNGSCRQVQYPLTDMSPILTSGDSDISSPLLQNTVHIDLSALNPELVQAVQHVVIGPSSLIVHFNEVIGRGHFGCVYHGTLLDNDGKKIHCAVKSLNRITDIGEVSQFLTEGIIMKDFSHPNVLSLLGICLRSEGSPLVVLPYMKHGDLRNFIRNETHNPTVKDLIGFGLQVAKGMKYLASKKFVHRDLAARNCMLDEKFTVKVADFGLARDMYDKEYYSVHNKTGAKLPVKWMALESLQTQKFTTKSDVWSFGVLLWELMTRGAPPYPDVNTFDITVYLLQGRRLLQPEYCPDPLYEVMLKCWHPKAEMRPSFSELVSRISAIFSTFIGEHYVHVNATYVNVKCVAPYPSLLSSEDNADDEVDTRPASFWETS
Experiment: In vitro kinase assay I (homogeneous time-resolved fluorescence tyrosine kinase assay)
Experimental: The kinase activities of c-Met are measured using a modified version of the homogeneous-time-resolved tyrosine kinase assay described by Park et al. (1999, Anal. Biochem. 269:94-104). The procedure for determining the potency of a compound to inhibit c-Met kinase comprises the following steps: • 1. […] Read HTRF signals on a Victor reader (PerkinElmer) in HTRF mode after 60-min incubation at room temperature in the dark. • 6. […]
pIC50: −log10 of the molar value.
reported.property: pIC50

Req: For O=c1ccn(-c2cc(F)cc(F)c2)nc1Cc1cccc(-c2ncc(O)cn2)c1 [compound 189] , what is its reported pIC50?
Resp: 6.00 to 7.00

Req: For CCOc1cnc2ccc(Cc3nn(-c4cc(F)c(F)c(F)c4)ccc3=O)cc2c1 [Example 65] , what is its reported pIC50?
Resp: 6.00 to 7.00

Req: For CCOc1cnc(-c2cccc(Cc3nn(-c4cccc(Br)c4)ccc3=O)c2)nc1 [Example 143] , what is its reported pIC50?
Resp: > 7.00

Req: For COc1cnc(-c2cccc(Cc3nn(-c4cncc(C)c4)ccc3=O)c2)nc1 [Example 37] , what is its reported pIC50?
Resp: > 7.00

Req: For O=C(Nc1cccc(Cc2nn(-c3ccc(F)c(F)c3)ccc2=O)c1)OCC1COCCO1 (racemic) [Example 603] , what is its reported pIC50?
Resp: > 7.00

Req: For Cn1cc(-n2ccc(=O)c(Cc3cccc(-c4ncc(-c5cnoc5)cn4)c3)n2)cn1 [Example 423] , what is its reported pIC50?
Resp: > 7.00

Req: For Cn1cc(-n2ccc(=O)c(Cc3cccc(-c4ncc(OC5CCOCC5)cn4)c3)n2)cn1 [Example 277] , what is its reported pIC50?
Resp: > 7.00

###

Below, each entry is listed with its recorded pIC50.
Molecular target: c-Met kinase (recombinant c-Met) (Homo sapiens)
Construct: 0.27 nM recombinant c-Met
Experiment: In vitro kinase assay I (homogeneous time-resolved fluorescence tyrosine kinase assay)
pIC50: −log10 of the molar value.

Known results for compounds:
CCOC(=O)Nc1cccc(Cc2nn(-c3cnn(CC)c3)ccc2=O)c1 : > 7.00
CCn1cc(-n2ccc(=O)c(C(C)c3cccc(-c4ncc(COC)cn4)c3)n2)cn1 (single isomer, unassigned) [Example 217] : 6.00 to 7.00
CCC(COC(=O)Nc1cccc(Cc2nn(-c3cccc(C#N)c3)ccc2=O)c1)OC (racemic) : > 7.00

Req: For O=C(NCCN1CCOCC1)Nc1cccc(Cc2nn(-c3ccc(F)c(F)c3)ccc2=O)c1 , what is its reported pIC50?
Resp: > 7.00

Req: For CN(C)CCCc1cnc(-c2cccc(Cc3nn(-c4cnn(C)c4)ccc3=O)c2)nc1 , what is its reported pIC50?
Resp: > 7.00

###

Target: c-Met kinase (recombinant c-Met) (Homo sapiens, UniProt P08581)
Construct: 0.27 nM recombinant c-Met
Experiment: In vitro kinase assay I (homogeneous time-resolved fluorescence tyrosine kinase assay)
reported.property: IC50

Known results for compounds:
CCOc1cnc(-c2cccc(Cc3nn(-c4ccc(C(=O)NC)c(F)c4)ccc3=O)c2)nc1 : < 100 nM
COC(C)(C)Cn1cnc(-c2cccc(Cc3nn(-c4cnn(C)c4)ccc3=O)c2)n1 : < 100 nM

Req: For Cn1cc(-n2ccc(=O)c(Cc3cccc(CC(N)=O)c3)n2)cn1 , what is its reported IC50?
Resp: 1000 to 3000 nM

Req: For Cn1cc(-n2ccc(=O)c(Cc3cccc(NC(=O)OCCC4(O)CCOC(C)(C)C4)c3)n2)cn1 (racemic) , what is its reported IC50?
Resp: < 100 nM

Req: For CC(C)COc1cnc(-c2cccc(Cc3nn(-c4cnn(C)c4)ccc3=O)c2)nc1 , what is its reported IC50?
Resp: < 100 nM
